# Assay procedure: Clinical plasma PK in healthy volunteers after oral dosing (observed)
# Type: in vivo
# Protocol conditions: male, human, po, 60 mg, oral single dosing 60 mg
Readout label: Cmax (ng/mL)
Provide only the numeric value, understood in ng/mL.

Cmax reading for `CCCCC1=CCC[C@@]2(C)CC[C@@H]3C[C@]12OC3(C)C` : 39.8

###

# Assay procedure: Plasma PK in the rat after oral dosing (observed)
# Format: in vivo, male Wistar rats
# Protocol conditions: male, Wistar, oral 4 mg/kg, read-out: Tmax Observed
Readout label: Tmax (min)
Provide only the numeric value, understood in min.

Tmax reading for `CCCCC1=CCC[C@@]2(C)CC[C@@H]3C[C@]12OC3(C)C` : 15
